system-name: PEG-3 (UniProt Q6IN02)
assay-info: GAPDH versus PEG-3 reporter suppression – cell-based, luminescence, counter-screen for PEG-3 promoter inhibitor project, SAR follow-up (AID 651551)
condition-notes: HeLa PEG-Prom / GAPDH luciferase reporter, 6 or 24 h, run 1, 24 h; at 99 µM (top of the series)
attribute-measured: inhibition % (higher = more inhibition)
Please provide the amount together with its unit, number first.

Worked cases, answers included:
smiles-structure: Cc1cc(NC(=O)c2ccccc2C(F)(F)F)n(-c2nc3ccccc3[nH]2)n1
inhibition % (higher = more inhibition): 93.5%
//
smiles-structure: O=C(Nc1nc(-c2ccccc2)cs1)c1nn(-c2ccccc2)c(=O)c2ccccc12
inhibition % (higher = more inhibition): 13%
//
smiles-structure: Cc1nc(NC(=O)c2ccccc2)sc1-c1csc(Nc2ccccc2)n1
inhibition % (higher = more inhibition): 73.4%
//
smiles-structure: Cc1cc(NC(=O)c2ccccc2)n(-c2nc3ccccc3n2C)n1
inhibition % (higher = more inhibition): 10.1%

Attention now turns to another entry.
Could you please provide reported inhibition % (higher = more inhibition) for Cc1cc(NC(=O)c2ccccc2)n(-c2nc3ccccc3[nH]2)n1 ? Thanks!
-6.81%

----------
system-name: PEG-3 (UniProt Q6IN02)
assay-info: GAPDH versus PEG-3 reporter suppression – cell-based, luminescence, counter-screen for PEG-3 promoter inhibitor project, SAR follow-up (AID 651551)
condition-notes: HeLa PEG-Prom / GAPDH luciferase reporter, 6 or 24 h, run 1, 24 h; at 99 µM (top of the series)
We use 20% as the dividing line for inhibition % (higher = more inhibition): on or above the line is Y, below is N.

smiles-structure: COc1ccc(-n2nc(C(=O)NCC(=O)Nc3ccc(OC)c(OC)c3)c3ccccc3c2=O)cc1
assigned-label: Y
//
smiles-structure: Cc1nc(NC(=O)c2ccccc2)sc1-c1csc(Nc2ccccc2Cl)n1
assigned-label: N
//
smiles-structure: Cc1ccc(Cl)cc1Nc1nc(-c2sc(NC(=O)c3ccco3)nc2C)cs1
assigned-label: Y
//
smiles-structure: CCn1cc(C(=O)NCc2ccco2)c(=O)c2cc(S(=O)(=O)N3CCCC3)ccc21
assigned-label: Y
//
smiles-structure: O=C(Nc1nc2ccccc2s1)c1nn(-c2ccccc2)c(=O)c2ccccc12
assigned-label: N

Entry CCCn1nc(C(=O)Nc2nc3ccccc3s2)c2ccccc2c1=O : is its inhibition % (higher = more inhibition) no less than 20%?
Y
